The reported measurements were obtained from ChEMBL document CHEMBL2311326.

Record form. Attribute: MIC. Fill in for each entry.
- Test system: Staphylococcus aureus
- procedure.details: Antimicrobial activity against Staphylococcus aureus ATCC 6538
- Format: functional
# unit: µg/mL | format: bare number

Entry `COC(=O)CC[C@H](NSc1ccc([N+](=O)[O-])cc1)C(=O)OC` has what MIC?
6.25

Entry `O=[N+]([O-])c1ccc(S)cc1` has what MIC?
3.13

Entry `O=C1C(=O)N(Sc2ccccc2[N+](=O)[O-])c2c(Cl)cccc21` has what MIC?
12.5

Entry `CC(C)OC(=O)[C@H](Cc1c[nH]c2ccccc12)NSc1ccccc1[N+](=O)[O-]` has what MIC?
6.25

Entry `COC(=O)[C@H](Cc1c[nH]c2ccccc12)NSc1ccccc1[N+](=O)[O-]` has what MIC?
6.25

Entry `CCOC(=O)[C@H](Cc1c[nH]c2ccccc12)NSc1ccccc1[N+](=O)[O-]` has what MIC?
6.25
